Listed next: entries and their corresponding GI50.
system: OVCAR-3 ovarian; experiment: NCI tumour cell line growth inhibition, 48 h

{"MOLECULE": "Cc1ccc(/C=C(\\C#N)n2nnc3cc(F)c(F)cc32)cc1", "GI50": "1.47 µM"}
{"MOLECULE": "CC(CN(CP(=O)([O-])[O-])CP(=O)([O-])[O-])N(CP(=O)([O-])[O-])CP(=O)([O-])[O-].N[C@@H]1CCCC[C@@H]1N.[Pt+2] (stereo not drawn)", "GI50": "> 100 µM"}
{"MOLECULE": "Fc1ccc(Nc2nc(Nc3ccc(-c4nc5ccccc5[nH]4)cc3)nc(N3CCCC3)n2)cc1", "GI50": "2.75 µM"}
